Data provenance: ChEMBL document CHEMBL1129285

Target: Protein kinase C alpha type (Homo sapiens, UniProt P17252)
recorded.metric: Ki (nM)
Entry rule: numbers only, all in nM.

Field: Ki (Protein kinase C alpha type (Homo sapiens, UniProt P17252)). Entry: CCCCCCCCCCCCC/C=C1\CC(CO)(COC(C)=O)OC1=O (stereo unspecified)
78
